# assayed target: Serine/threonine-protein kinase pim-1 (Homo sapiens)
# Sequence (P11309 whole entry): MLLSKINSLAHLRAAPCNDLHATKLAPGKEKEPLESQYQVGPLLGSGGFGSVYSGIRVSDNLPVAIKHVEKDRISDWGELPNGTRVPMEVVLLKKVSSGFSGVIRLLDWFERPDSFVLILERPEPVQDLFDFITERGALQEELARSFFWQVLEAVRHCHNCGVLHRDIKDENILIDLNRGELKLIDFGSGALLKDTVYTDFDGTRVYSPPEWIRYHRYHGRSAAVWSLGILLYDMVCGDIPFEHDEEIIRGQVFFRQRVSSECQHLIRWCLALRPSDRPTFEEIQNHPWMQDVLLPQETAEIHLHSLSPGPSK
pKi: −log10 of the molar value.
Would you mind labelling by pKi? At or over 9 is rule met, under is rule not met.

Below are worked cases with known answers.
# mol smiles, class assignment
measured = [
    ("Cc1cncc(-c2cc(F)c3cnn(-c4cccc(N5CCCNCC5)n4)c3c2)n1", "rule not met"),
    ("Cc1cncc(-c2cc3c(cn2)cnn3-c2cccc([C@H]3CNCCC3(F)F)n2)n1", "rule met"),
    ("Cc1cncc(-c2cc3c(cnn3-c3cccc(N4CCCNCC4)n3)nn2)n1", "rule met"),
]

Now consider the entry below.
Form field: pKi at least 9? Entry: "N[C@H]1CCCN(c2cccc(-c3n[nH]c4cnc(-c5cccnc5)cc34)n2)C1"
rule met

---

// each record: one item and its Ki for Serine/threonine-protein kinase pim-2 (Homo sapiens, UniProt Q9P1W9)

As a guide, the following entries are already answered.
# mol smiles, assayed target, Ki
measured = [
    ("Cc1cncc(-c2cc3c(-c4cccc(N5CCCNCC5)n4)n[nH]c3cn2)n1", "Serine/threonine-protein kinase pim-2 (Homo sapiens, UniProt Q9P1W9)", "0.11 to 0.17 nM"),
    ("Cc1cncc(-c2cc3c(cn2)cnn3-c2cccc([C@H]3CNCCC3(F)F)n2)n1", "Serine/threonine-protein kinase pim-2 (Homo sapiens, UniProt Q9P1W9)", "0.23 nM"),
    ("Cn1cc(-c2cc3c(-c4cccc(N5CCC[C@H](N)C5)n4)n[nH]c3cn2)cn1", "Serine/threonine-protein kinase pim-2 (Homo sapiens, UniProt Q9P1W9)", "0.2 nM"),
    ("Cc1cncc(-c2cc3c(ccn3-c3cccc(N4CCCNCC4)n3)cn2)n1", "Serine/threonine-protein kinase pim-2 (Homo sapiens, UniProt Q9P1W9)", "9.6 nM"),
    ("Cc1cncc(-c2ccc3cnn(-c4cccc(N5CCCNCC5)n4)c3c2)n1", "Serine/threonine-protein kinase pim-2 (Homo sapiens, UniProt Q9P1W9)", "7.9 nM"),
]

Please find the next compound below.
Give Ki for "CCn1cc(-c2cc3c(-c4cccc(N5CCOCC5)n4)n[nH]c3cn2)cn1" tested on Serine/threonine-protein kinase pim-2 (Homo sapiens, UniProt Q9P1W9).
Sequence (Q9P1W9 whole entry): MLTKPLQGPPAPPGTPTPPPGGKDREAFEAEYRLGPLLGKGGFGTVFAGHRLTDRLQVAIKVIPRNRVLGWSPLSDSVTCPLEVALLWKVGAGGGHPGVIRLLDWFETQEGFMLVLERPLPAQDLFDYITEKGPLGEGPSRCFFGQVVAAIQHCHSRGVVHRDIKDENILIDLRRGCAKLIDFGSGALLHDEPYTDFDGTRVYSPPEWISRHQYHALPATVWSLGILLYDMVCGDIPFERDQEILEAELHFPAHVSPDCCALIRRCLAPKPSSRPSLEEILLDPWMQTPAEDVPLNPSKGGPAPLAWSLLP
4 nM

---

# procedure text: Metabolic stability in rat intestinal microsomes assessed as compound remaining after 60 mins in absence of NADPH/UDPGA
# Type: ADME, Intestine, Microsome
# condition: microsomes, 1 h
assay metric: Stability

# mol smiles, result
data = [
    ("c1cncc(-c2cc3c(-c4cccc(N5CCNCC5)n4)n[nH]c3cn2)c1", "Stable"),
    ("Cc1ccc(-c2n[nH]c3cnc(-c4cccnc4)cc23)nc1N1CC[C@@H](N)C1", "Stable"),
    ("CN1CCN(c2cc3c(-c4cccc(N5CCNCC5)n4)n[nH]c3cn2)CC1=O", "130%"),
    ("Cn1cc(-c2cc3c(-c4cccc(N5CCC[C@@H](N)C5)n4)n[nH]c3cn2)cn1", "Stable"),
]

Please find the next molecule below.
Input "c1cncc(-c2cc3c(-c4cccc(N5CCCNCC5)n4)n[nH]c3cn2)c1" , output reported Stability.
Stable

---

# procedure text: Clearance in rat at 1 mg/kg, iv
# Format: ADME, organism-based
# condition: in vivo
assay metric: clearance (mL/min/kg)
Write the number in mL/min/kg without appending the unit.

As a guide, the following entries are already answered.
# mol smiles, display unit, clearance
measured = [
    ("COc1ccc(-n2ncc3cnc(-c4cncc(C)n4)cc32)nc1N1CCC[C@H](N)C1", "mL/min/kg", 34),
    ("Cc1cncc(-c2cc3c(cn2)cnn3-c2cccc(N3CCCNCC3)n2)n1", "mL/min/kg", 28),
    ("Cc1cncc(-c2cc3c(-c4cccc(N5CCCNCC5)n4)n[nH]c3cn2)n1", "mL/min/kg", 65),
    ("CN1CCN(c2cc3c(-c4cccc(N5CCNCC5)n4)n[nH]c3cn2)CC1=O", "mL/min/kg", 19),
    ("Cc1ccc(-c2n[nH]c3cnc(-c4cccnc4)cc23)nc1N1CCC[C@H](N)C1", "mL/min/kg", 21),
]

Input "CCn1cc(-c2cc3c(-c4cccc(N5CCC[C@@H](N)C5)n4)n[nH]c3cn2)cn1" , output reported clearance.
8

Input "Cc1cncc(-c2cc3c(cn2)cnn3-c2cccc([C@H]3CNCCC3(F)F)n2)n1" , output reported clearance.
40
